Numbers sourced from patent US7625887B2.

Target: human TGR5 (Homo sapiens, UniProt Q8TDU6)
Sequence (Q8TDU6 whole entry): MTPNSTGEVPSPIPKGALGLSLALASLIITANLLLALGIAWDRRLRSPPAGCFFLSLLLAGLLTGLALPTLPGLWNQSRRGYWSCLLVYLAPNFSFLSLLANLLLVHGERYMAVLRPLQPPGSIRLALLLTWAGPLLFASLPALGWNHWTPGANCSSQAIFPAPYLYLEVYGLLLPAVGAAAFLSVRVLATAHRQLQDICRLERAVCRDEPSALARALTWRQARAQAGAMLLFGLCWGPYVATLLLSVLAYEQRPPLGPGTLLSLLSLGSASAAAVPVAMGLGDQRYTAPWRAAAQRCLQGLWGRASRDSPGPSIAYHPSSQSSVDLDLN
Test: cAMP production increasing activity in human TGR5 expressing CHO cells
Settings: read-out: EC50 value (concentration necessary to make the cAMP production amount 50%)
endpoint: EC50

State its EC50 on human TGR5 (Homo sapiens, UniProt Q8TDU6): CC(c1cc(C(F)(F)F)cc(C(F)(F)F)c1)N1CCOc2nccc(-c3ccccc3)c2C1.Cl (stereo not drawn) [Example 33C, hydrochloride] < 100 nM

Recall the recorded EC50 for CC(=O)NCc1cccc(C2OC(CC(=O)NCc3ccccc3F)C(=O)N(CC(C)(C)C)c3ccc(Cl)cc32)c1 (single isomer, unassigned; (+)) [Reference Example 33] with human TGR5 (Homo sapiens, UniProt Q8TDU6) and state it. < 100 nM

Identify the measured EC50 of O=S(=O)(c1cccc2ccccc12)N1CCOc2nccc(-c3ccccc3)c2C1 [Example 42C] for human TGR5 (Homo sapiens, UniProt Q8TDU6). < 100 nM
